Data provenance is patent US11498928B2.

Quick list: MRT last per entry.
- method-notes: Pharmacokinetic studies in mice (IV and PO)
- Format: in vivo
- applied-conditions: mouse, plasma, PO 10 mg/kg, read-out: MRT0-last
Please state the figure in h; there is no need to write the unit.

Use these answered entries as a reference point.
molecule | MRT last [h]
CO[C@H]1C2=C[C@@H](C2)[C@H](C)[C@@H](C)S(=O)(=O)NC(=O)c2ccc3c(c2)N(C[C@@H]2CC[C@H]21)C[C@@]1(CCCc2c1ccc(Cl)c2F)CO3 (single isomer, unassigned) [Cpd. No. 17 (isomer 1)] | 8.3
COCCO[C@H]1C2=CC(C2)[C@H](C)[C@@H](C)S(=O)(=O)NC(=O)c2ccc3c(c2)N(C[C@@H]2CC[C@H]21)C[C@@]1(CCCc2cc(Cl)ccc21)CO3 (mixture of isomers) [16 (mixture)] | 4.5
CO[C@H]1C2=CC(C2)[C@H](C)[C@@H](C)S(=O)(=O)NC(=O)c2ccc3c(c2)N(C[C@@H]2CC[C@H]21)C[C@@]1(CCCc2cc(Cl)cc(F)c21)CO3 (single isomer, unassigned) [20 (isomer 1)] | 3.6
CO[C@H]1C2=CC(C)(C2)[C@H](C)CS(=O)(=O)NC(=O)c2ccc3c(c2)N(C[C@@H]2CC[C@H]21)C[C@@]1(CCCc2cc(Cl)ccc21)CO3 (mixture of isomers) [13 (mixture)] | 6.6
CO[C@H]1C2=CC(C2)[C@H](C)CS(=O)(=O)NC(=O)c2ccc3c(c2)N(C[C@@H]2CC[C@H]21)C[C@@]1(CCCc2cc(Cl)ccc21)CO3 (single isomer, unassigned) [Cpd. No. 14 (Isomer 1)] | 5.6

May I ask what MRT last has been recorded for CO[C@H]1C2=C[C@@H](C2)[C@H](C)[C@@H](C)S(=O)(=O)NC(=O)c2ccc3c(c2)N(C[C@@H]2CC[C@H]21)C[C@@]1(CCCc2cc(Cl)ccc21)CO3 (single isomer, unassigned) [Cpd. No. 15 (isomer 1)] ? 6.1

Recorded MRT last of CO[C@H]1C2=CC(C2)[C@H](C)[C@@H](C)S(=O)(=O)NC(=O)c2ccc3c(c2)N(C[C@@H]2CC[C@H]21)C[C@@]1(CCCc2cc(Cl)c(F)cc21)CO3 (single isomer, unassigned) [Cpd. No. 21 (isomer 1)] , please. 4.9

// returns reported MRT last for input CO[C@H]1/C=C/C[C@H](C)[C@@H](C)S(=O)(=O)NC(=O)c2ccc3c(c2)N(C[C@@H]2CC[C@H]21)C[C@@]1(CCCc2cc(Cl)ccc21)CO3 [AMG-176, reference compound] 7.4
